system: human AD brain tissue homogenate (Homo sapiens, UniProt P05067)
Sequence (P05067 whole entry): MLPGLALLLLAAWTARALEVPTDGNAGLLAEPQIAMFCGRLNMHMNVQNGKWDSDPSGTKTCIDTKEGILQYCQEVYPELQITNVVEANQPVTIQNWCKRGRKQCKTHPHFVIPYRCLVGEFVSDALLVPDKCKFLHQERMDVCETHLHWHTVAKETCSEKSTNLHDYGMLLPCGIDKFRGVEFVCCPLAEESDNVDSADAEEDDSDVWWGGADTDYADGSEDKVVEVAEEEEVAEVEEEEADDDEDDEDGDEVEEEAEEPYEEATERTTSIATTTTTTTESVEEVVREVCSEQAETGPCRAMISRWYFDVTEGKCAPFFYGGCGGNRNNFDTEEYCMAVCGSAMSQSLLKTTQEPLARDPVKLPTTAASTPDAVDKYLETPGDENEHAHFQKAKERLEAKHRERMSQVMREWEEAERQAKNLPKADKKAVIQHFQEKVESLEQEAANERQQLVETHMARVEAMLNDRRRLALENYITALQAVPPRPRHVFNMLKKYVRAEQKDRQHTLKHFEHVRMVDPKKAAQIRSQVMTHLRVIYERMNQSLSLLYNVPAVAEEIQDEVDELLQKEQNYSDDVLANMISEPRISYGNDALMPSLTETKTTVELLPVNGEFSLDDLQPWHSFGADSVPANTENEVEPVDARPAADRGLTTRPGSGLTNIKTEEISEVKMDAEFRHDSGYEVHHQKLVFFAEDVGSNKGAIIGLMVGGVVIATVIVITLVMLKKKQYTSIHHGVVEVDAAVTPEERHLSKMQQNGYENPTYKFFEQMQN
reported_endpoint: IC50
Give me the value, and tack the unit on after it.

Illustrative cases are given below, each with its answer.
COc1ccc(-c2noc(-c3cnc(F)c(C)c3)n2)cc1
77 nM
CN(C)c1ccc(-c2cc(-c3cnc4[nH]ccc4c3)n[nH]2)cc1
50 nM

Now turn to the next compound.
What value of IC50 has been reported for the following compound? COc1ccc(-c2noc(-c3ccc4cc[nH]c4c3)n2)cc1
10 nM
